Tested on: human maximum recommended daily dose, FDA database
Assay: DSSTox (FDAMDD) FDA Maximum (Recommended) Daily Dose Database
Details: TherapeuticCategory: antihelmintic; antiseptic; hits give low values
Text: The Food and Drug Administration (FDA) Center for Drug Evaluation and Research, Office of Pharmaceutical Science, Informatics and Computational Safety Analysis Staff's Maximum Recommended Daily Dose (FDAMDD) database contains values for over 1200 pharmaceuticals listed in Martindale: The Extra Pharmacopoeia (1973, 1983, and 1993) and The Physicians' Desk Reference (1995 and 1999). […]
measure.name: maximum recommended daily dose (mmol/kg-bw/day)
Hey, just send me the number, nothing else.

Input: Would you mind telling me what maximum recommended daily dose (mmol/kg-bw/day) value was observed for CCCCCCc1ccc(O)cc1O ?
Output: 0.0858
